assayed-target: human plasmin (Homo sapiens, UniProt P00747)
Sequence (P00747 581-810 limits assumed): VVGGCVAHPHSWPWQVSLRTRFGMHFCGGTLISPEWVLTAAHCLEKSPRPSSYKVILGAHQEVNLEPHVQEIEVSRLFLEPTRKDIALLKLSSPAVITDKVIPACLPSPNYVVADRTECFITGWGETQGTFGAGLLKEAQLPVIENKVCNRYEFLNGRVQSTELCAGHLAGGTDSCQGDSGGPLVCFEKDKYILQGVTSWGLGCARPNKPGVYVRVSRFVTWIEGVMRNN
Sequence (P00747 97-580 limits assumed): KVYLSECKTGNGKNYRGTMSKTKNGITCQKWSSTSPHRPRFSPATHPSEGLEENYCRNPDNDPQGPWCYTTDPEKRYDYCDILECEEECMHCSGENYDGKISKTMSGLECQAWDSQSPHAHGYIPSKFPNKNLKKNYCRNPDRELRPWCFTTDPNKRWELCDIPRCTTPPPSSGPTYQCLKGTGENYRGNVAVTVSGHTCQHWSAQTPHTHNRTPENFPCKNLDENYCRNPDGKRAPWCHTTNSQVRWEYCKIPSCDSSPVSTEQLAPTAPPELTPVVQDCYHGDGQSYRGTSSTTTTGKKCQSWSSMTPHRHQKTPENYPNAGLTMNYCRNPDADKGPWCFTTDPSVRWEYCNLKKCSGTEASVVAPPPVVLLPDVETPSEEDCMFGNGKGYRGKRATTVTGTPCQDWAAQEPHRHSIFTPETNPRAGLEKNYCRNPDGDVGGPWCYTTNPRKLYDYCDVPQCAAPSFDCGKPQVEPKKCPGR
test-protocol: Antiplasmin activity: inhibition of fibrin decomposition
Format: biochemical
assay-setup: Table 2, pH 7.4, 37° C., read-out: Plasmin Fibrin I50 (concentration doubling fibrin dissolution time)
Here the recorded IC50 is given for each entry.
measure: IC50 (µM)

In [3]: df
Out[3]:
                                   compound  relational_operator  result
0  COCCCNC(=O)C(Cc1cccc(C(F)(F)F)c1)NC(=O)[C@H]1CC[C@H](CN)CC1 (stereo partly shown)                    =     260
1  NC[C@H]1CC[C@H](C(=O)NC(Cc2cccc(Oc3ccccc3)c2)C(=O)Nc2ccccn2)CC1 (stereo partly shown)                    =     190
2  CCOC(=O)c1cccc(NC(=O)C(Cc2cccc(Oc3ccccc3)c2)NC(=O)c2ccc(NC(=N)N)cc2)c1 (stereo not shown)                    >      25
3  NC[C@H]1CC[C@H](C(=O)NC(Cc2cccc(Oc3ccccc3)c2)C(=O)N2CCOCC2)CC1 (stereo partly shown)                    >    1000
